Assay: Dog PK study of C1 (S) enantiomer, single oral dose, plasma and whole blood by chiral LC-MS/MS
Type: in vivo, beagle dogs
Settings: dog, plasma; 8 hr; Beagle; oral 10 mg/kg; read-out: Plasma Concentration
Description: This study assessed the in vivo pharmacokinetic (PK) behavior of a single oral dose of the C1 (S) enantiomer in beagle dogs (Charles River study# 20104466). Solutions of C1 (S) enantiomer were dosed by oral gavage (10mg/kg) to a group of dogs (n=3). […] Test article concentrations in plasma and whole blood were determined using liquid chromatography tandem mass spectrometry (LC-MS/MS). […] In this report, PK calculations were normalized to the measured dose solution concentrations. […]
quantity: concentration at 8 hr (ng/mL)
Express your answer in ng/mL, writing the number without its unit.

[in] GET /values?readout=concentration at 8 hr&item= O=C(CC(F)(F)F)N1CC2(C1)OCc1cc(C3=NS[C@@](c4cc(Cl)c(F)c(Cl)c4)(C(F)(F)F)C3)ccc12 [C1 (S) enantiomer]
[out] 1110

---

Test: Plasma PK from oral tick and flea efficacy studies of the C1 racemate
Format: in vivo, Mongrel dogs
Conditions: mongrel, dog, plasma, po, 10 mg/kg, range over racemate efficacy studies; at 10 mg/kg; read-out: plasma area under the curve extrapolated to infinity (AUC0-∞)
quantity: AUC(0-inf)

[in] GET /values?readout=AUC(0-inf)&item= O=C(CC(F)(F)F)N1CC2(C1)OCc1cc(C3=NSC(c4cc(Cl)c(F)c(Cl)c4)(C(F)(F)F)C3)ccc12 (racemic) [C1 racemate]
[out] 361 to 395 µg·h/mL

---

Test: Plasma PK from oral tick and flea efficacy studies of the C1 racemate
Type: in vivo, Mongrel dogs
Conditions: mongrel, dog, plasma, po, 20 mg/kg, plasma; Mongrel; Tick Efficacy study, oral 20 mg/kg; read-out: NCA AUC0-∞
quantity: AUC(0-inf) (µg·h/mL)
Express your answer in µg·h/mL, writing the number without its unit.

[in] GET /values?readout=AUC(0-inf)&item= O=C(CC(F)(F)F)N1CC2(C1)OCc1cc(C3=NSC(c4cc(Cl)c(F)c(Cl)c4)(C(F)(F)F)C3)ccc12 (racemic) [C1 racemate]
[out] 674

---

Experiment: Dog PK study of C1 (S) enantiomer, single oral dose, plasma and whole blood by chiral LC-MS/MS
Type: in vivo, beagle dogs
Settings: dog, whole blood; 0.5 hr; Beagle; oral 10 mg/kg; read-out: Blood Concentration
quantity: concentration at 0.5 hr (ng/mL)
Express your answer in ng/mL, writing the number without its unit.

[in] GET /values?readout=concentration at 0.5 hr&item= O=C(CC(F)(F)F)N1CC2(C1)OCc1cc(C3=NS[C@@](c4cc(Cl)c(F)c(Cl)c4)(C(F)(F)F)C3)ccc12 [C1 (S) enantiomer]
[out] 1660

---

Experiment: Plasma PK from oral tick and flea efficacy studies of the C1 racemate
Format: in vivo, Mongrel dogs
Details: mongrel, dog, plasma, po, 20 mg/kg; Flea Efficacy study, oral 20 mg/kg
quantity: Tmax (h)
Express your answer in h, writing the number without its unit.

[in] GET /values?readout=Tmax&item= O=C(CC(F)(F)F)N1CC2(C1)OCc1cc(C3=NSC(c4cc(Cl)c(F)c(Cl)c4)(C(F)(F)F)C3)ccc12 (racemic) [C1 racemate]
[out] 1

---

Assay: Dog PK study of C1 (S) enantiomer, single oral dose, plasma and whole blood by chiral LC-MS/MS
Type: in vivo, beagle dogs
Settings: dog, whole blood; 24 hr; Beagle; oral 10 mg/kg; read-out: Blood Concentration
quantity: concentration at 24 hr (ng/mL)
Express your answer in ng/mL, writing the number without its unit.

[in] GET /values?readout=concentration at 24 hr&item= O=C(CC(F)(F)F)N1CC2(C1)OCc1cc(C3=NS[C@@](c4cc(Cl)c(F)c(Cl)c4)(C(F)(F)F)C3)ccc12 [C1 (S) enantiomer]
[out] 708

This collection of values is drawn from patent US10807992B2.
